Origin of values: the supplement of paper PMC10567573

B1: CSTF3 (parent)
chain: YVPEKVKKAEKKLEENPYDLDAWS

Variants of: B1
assay-method-text: protein stability index of a GFP-peptide fusion (GPS, HEK-293T) (PSI 1-6); higher = more stable;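 note: lentivirally expressed fusions sorted by FACS into six bins by GFP to DsRed ratio, PSI derived from sequencing read proportions per bin multiplied by bin number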
measurement-setup: c terminus: a fixed tail appended
measure-name: protein stability index

Tell me measured protein stability index for YVPEKVKKTEKKLEENPYDLDAWS [A9T] please. 2.66

Name the recorded protein stability index of the item YVPEKVKKAEKKLEENPSDLDAWS [Y18S] in your answer. 2.46

# return recorded protein stability index for entry YVPEKVKKAEKKLEENPGDLDAWS [Y18G] 2.35

Find the measured protein stability index of YVPEKVKKAEKKLEPNPYDLDAWS [E15P] and report it. 2.47
